- System: HCC 2998
- PROCEDURE_TEXT: NCI tumour cell line growth inhibition, 48 h
The source made the active and inactive calls. No stated cut-off is given here; in the data, active = GI50 up to about 1.1 µM and inactive = higher.
Respond using exactly one of the listed classes: Y (active), N (inactive)

CCN1C(=S)n2cccc2C1CC(=O)c1ccc(Cl)cc1 (stereo unspecified) ... N
CSCCCN(CCCSC)CCCSC ... N
Cc1cc(NCCCCCCCNc2cc(C)nc3cc(N)ccc23)c2ccc(N)cc2n1 ... N
OC(c1ccccc1)c1c(-c2ccccc2)[nH]c(-c2ccccc2)c1C(O)c1ccccc1 (stereo unspecified) ... N
N#CC(C(=O)CCC(=O)Nc1cccc(Cl)c1)c1ccccc1 (stereo unspecified) ... N
CCNC(=S)NNC(=O)CSc1nc2ccc(I)cc2c(=O)n1Cc1ccccc1 ... N

(Q) Can you look up the reported call for CCN(CCCN(CC)C(=O)Nc1c(C)cccc1C)C(=O)Nc1c(C)cccc1C for me?
(A) N

(Q) Would you mind telling me which call this test gave COc1cc2c(/C=C3/C(=O)Nc4ccccc43)c(Cl)[nH]c2cc1C ?
(A) Y

(Q) // return assay outcome for Oc1cc(CF)nc(S)n1
(A) N
